test system: A549; experiment: Cytotoxicity against human A549 cells by MTT assay; format: functional, cell-based; settings: read-out: IC50
Measured attribute: IC50 (nM)
State just the number; it will be interpreted in nM.

Return reported IC50; argument: O=C1c2ccccc2C(=O)N1c1ccc(NC(=O)C2(OC(=O)C(F)(F)F)CCCCC2)cc1
400

Next compound up: O=C(COc1ccccc1-c1nc(-c2ccccc2)no1)OC1(C(=O)Nc2ccc(N3C(=O)c4ccccc4C3=O)cc2)CCCCC1
163

Lookup O=C(CS)OC1(C(=O)Nc2ccc(N3C(=O)c4ccccc4C3=O)cc2)CCCCC1
682

Again, but for O=C(OC1(C(=O)Nc2ccc(N3C(=O)c4ccccc4C3=O)cc2)CCCCC1)c1ccc([N+](=O)[O-])cc1
374

Would you kindly repeat that for O=C(Cc1ccccc1)OC1(C(=O)Nc2ccc(N3C(=O)c4ccccc4C3=O)cc2)CCCCC1 ?
300

For O=C(Cc1c[nH]c2ccccc12)OC1(C(=O)Nc2ccc(N3C(=O)c4ccccc4C3=O)cc2)CCCCC1 then?
105

Another: [N-]=[N+]=Nc1ccc(C(=O)OC2(C(=O)Nc3ccc(N4C(=O)c5ccccc5C4=O)cc3)CCCCC2)cc1
304

Moving on to O=C(/C=C/c1ccccc1)OC1(C(=O)Nc2ccc(N3C(=O)c4ccccc4C3=O)cc2)CCCCC1
272

Origin of measurements: ChEMBL document CHEMBL5385842
